Can you tell me MIC for the items I'm about to list?
Test system: Proteus mirabilis (indol -) A 235
Test: In vitro MIC, dilution of a liquid medium
Type: cell-based
Conditions: 24 H, 37° C., read-out: minimum inhibiting concentration (MIC)
Supply the numeric figure in µg/mL, leaving out any unit text.

Please tell me: MIC of CC(=O)OCC1=C(C(=O)O)N2C(=O)C(NC(=O)/C(=N\OCC#N)c3csc(N)n3)C2SC1 (stereo not shown) , system Proteus mirabilis (indol -) A 235? 0.05

Please tell me: MIC of CC(=O)OCC1=C(C(=O)O)N2C(=O)C(NC(=O)/C(=N\OC(C)(C)C(=O)O)c3csc(N)n3)[C@H]2SC1 (stereo partly shown) , system Proteus mirabilis (indol -) A 235? 0.05

Please tell me: MIC of CCOC(=O)CO/N=C(\C(=O)NC1C(=O)N2C(C(=O)O)=C(COC(C)=O)CS[C@H]12)c1csc(N)n1 (stereo partly shown) , system Proteus mirabilis (indol -) A 235? 0.2

====

System: Proteus mirabilis (indol -) A 235
Assay: In vitro MIC, dilution of a liquid medium
Type: cell-based
Details: 48 H, 37° C., read-out: minimum inhibiting concentration (MIC)
Measured Property: MIC (µg/mL)
Supply the numeric figure in µg/mL, leaving out any unit text.

Please tell me: MIC of CC(=O)OCC1=C(C(=O)O)N2C(=O)C(NC(=O)/C(=N\OCC#N)c3csc(N)n3)C2SC1 (stereo not shown) , system Proteus mirabilis (indol -) A 235? 0.05

Please tell me: MIC of CCOC(=O)CO/N=C(\C(=O)NC1C(=O)N2C(C(=O)O)=C(COC(C)=O)CS[C@H]12)c1csc(N)n1 (stereo partly shown) , system Proteus mirabilis (indol -) A 235? 0.2

Please tell me: MIC of CC(=O)OCC1=C(C(=O)O)N2C(=O)C(NC(=O)/C(=N\OC(C)(C)C(=O)O)c3csc(N)n3)[C@H]2SC1 (stereo partly shown) , system Proteus mirabilis (indol -) A 235? 0.05

====

Test system: Escherichia Coli Resistant Tetracycline ATCC 11 303
Assay: In vitro MIC, dilution of a liquid medium
Assay type: cell-based
Details: ATCC11, 24 H, 37° C., read-out: minimum inhibiting concentration (MIC)
Measured Property: MIC (µg/mL)
Supply the numeric figure in µg/mL, leaving out any unit text.

Fill in: MIC of CC(=O)OCC1=C(C(=O)O)N2C(=O)C(NC(=O)/C(=N\OC(C)(C)C(=O)O)c3csc(N)n3)[C@H]2SC1 (stereo partly shown) is ___ 0.2

Fill in: MIC of CC(=O)OCC1=C(C(=O)O)N2C(=O)C(NC(=O)/C(=N\OCC(N)=O)c3csc(N)n3)[C@H]2SC1 (stereo partly shown) is ___ 0.05

Fill in: MIC of CC(=O)OCC1=C(C(=O)O)N2C(=O)C(NC(=O)/C(=N\OCC(=O)O)c3csc(N)n3)[C@H]2SC1 (stereo partly shown) is ___ 0.05

Fill in: MIC of CC(=O)OCC1=C(C(=O)O)N2C(=O)C(NC(=O)/C(=N\OCC#N)c3csc(N)n3)C2SC1 (stereo not shown) is ___ 0.05
